Increased immune reactions to peptide: IgG antibody: recorded values
test system: peptide-reactive IgG; test: ELISA of peptide-reactive serum IgG in pre- and post-vaccination sera; format: in vivo, human; details: post (3rd and 6th)-vaccination sera vs pre-vaccination; positive cases/No. of tested cases (% positive)

Asked: For the sequence AFLRHAAL [ART4 13] , what Increased immune reactions to peptide: IgG antibody is on record?
Given back: 0/2

Asked: For the sequence DYPSLSATDI [ART4 75] , what Increased immune reactions to peptide: IgG antibody is on record?
Given back: 0/15

Asked: For the sequence DVWSFGILL [Ick422] , what Increased immune reactions to peptide: IgG antibody is on record?
Given back: 0/10

Asked: For the sequence LLQAEAPRL [SART3 302] , what Increased immune reactions to peptide: IgG antibody is on record?
Given back: 0/5

Asked: For the sequence ALVEFEDVL [HNRPL140] , what Increased immune reactions to peptide: IgG antibody is on record?
Given back: 0/5
